assayed_target: GST-tagged SIK2 (Homo sapiens (Human), UniProt Q9H0K1)
Sequence (Q9H0K1 whole entry): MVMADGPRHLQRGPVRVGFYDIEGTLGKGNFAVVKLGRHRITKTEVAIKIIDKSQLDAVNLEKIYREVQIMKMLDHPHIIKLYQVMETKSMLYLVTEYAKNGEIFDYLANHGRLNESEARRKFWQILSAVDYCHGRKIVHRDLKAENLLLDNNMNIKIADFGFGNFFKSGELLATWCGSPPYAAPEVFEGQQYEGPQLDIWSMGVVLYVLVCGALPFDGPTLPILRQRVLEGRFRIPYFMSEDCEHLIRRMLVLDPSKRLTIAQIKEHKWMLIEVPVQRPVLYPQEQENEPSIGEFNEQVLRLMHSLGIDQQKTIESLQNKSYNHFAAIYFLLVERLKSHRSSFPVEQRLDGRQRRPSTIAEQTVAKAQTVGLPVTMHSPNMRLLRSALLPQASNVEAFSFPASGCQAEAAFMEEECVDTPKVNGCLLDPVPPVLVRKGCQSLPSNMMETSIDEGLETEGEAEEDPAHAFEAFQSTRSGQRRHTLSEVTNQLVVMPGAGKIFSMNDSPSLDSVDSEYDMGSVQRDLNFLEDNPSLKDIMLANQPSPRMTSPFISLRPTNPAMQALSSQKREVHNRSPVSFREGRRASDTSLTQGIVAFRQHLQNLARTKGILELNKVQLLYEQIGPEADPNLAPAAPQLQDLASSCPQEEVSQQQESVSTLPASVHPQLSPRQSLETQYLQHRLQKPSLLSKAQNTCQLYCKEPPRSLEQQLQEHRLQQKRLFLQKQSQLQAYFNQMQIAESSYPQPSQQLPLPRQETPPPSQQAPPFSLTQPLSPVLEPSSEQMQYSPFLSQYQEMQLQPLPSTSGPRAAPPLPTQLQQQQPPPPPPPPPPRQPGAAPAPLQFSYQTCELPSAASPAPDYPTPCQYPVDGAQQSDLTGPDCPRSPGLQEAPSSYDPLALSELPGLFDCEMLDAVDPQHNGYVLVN
value_type: IC50 (nM)

// known answers, use as guide
molecule: COc1cc(-c2c3c(C#N)cc(-c4cnn(C[C@H](C)O)c4)cc3nn2C)cc2c1C(=O)NCC2(C)C
IC50 / nM: 3.7
//
molecule: COc1cc(-c2c3c(C#N)cc(-c4cnn(C[C@H](C)O)c4)cc3nn2C)cc(OC(F)F)c1C(N)=O
IC50 / nM: 1.8

I: COc1cc(-c2cnn(C[C@H](C)O)c2)cc2nn(C)c(-c3cc(OC(F)F)c4c(c3)[C@@H](C)CNC4=O)c12 (single isomer, unassigned) [Example 175]
II: COc1cc(-c2c3c(OCCCO)cc(-c4cnn(C)c4)cc3nn2C)cc(OC(F)F)c1C(=O)N[C@@H]1C[C@@H]1F
Lab log: flag the item ( I or II ) with the smaller IC50 figure. Refer to your chosen entry by its label in the reply.
I
(I: 2.9 nM, II: 8.9 nM)

a: CCCn1cc(-c2cc(C#N)c3c(-c4cc(OC)c5c(c4)C(C)(C)CNC5=O)n(C)nc3c2)cn1
b: COc1cc(-c2c3c(C(F)F)cc(-c4cnn(CC(=O)N(C)C)c4)cc3nn2C)cc(OC(F)F)c1C(=O)N1CC(O)(C(F)F)C1
Lab log: flag the item ( a or b ) with the smaller IC50 figure. Refer to your chosen entry by its label in the reply.
b
(b: 7.4 nM, a: 12.3 nM)
